readout: melting point

Noted for CSc1nc2cc(C(F)(F)F)ccc2n1N : its melting point reads 170 to 173 °C

Noted for CC(C)(C)ON(O)C(=O)C(C)(C)CSc1ccc(Oc2ccc(Cl)cn2)cc1 : its melting point reads 90.8 to 91.9 °C

Noted for CC(C)Oc1ccc2c(c1)OC(C(F)(F)F)C(C(=O)O)=C2 (stereo unspecified) : its melting point reads 161 to 163 °C

Noted for CC(=O)Oc1ccc2nc(C#N)nc(Cl)c2c1 : its melting point reads 145 to 147 °C

Noted for Cc1cc2c3c(c1)NC(=O)c1ccccc1N3CC2 : its melting point reads 222 to 224 °C

Noted for Cc1ccc(NC2CCCc3cc(C)cnc32)cc1 (stereo unspecified) : its melting point reads 83 to 85 °C

Noted for NCCc1c[nH]c2ccc3c(=O)n(CCc4ccccc4)ccc3c12 : its melting point reads 162 to 166 °C

Noted for CC(C)(C)c1ccc(-c2ccc(C(=O)CCC(=O)O)cc2)cc1 : its melting point reads 172 to 174 °C

Noted for COc1ccc(C(CCCCC(=O)O)C2=CC(=O)c3ccccc3C2=O)cc1 (stereo unspecified) : its melting point reads 141 to 143 °C

Noted for CN(c1cccc2cc(-c3nccs3)[nH]c12)S(=O)(=O)c1ccsc1C(C)(C)O : its melting point reads 153 °C

Noted for CNC(=O)c1sc(C(C)(C)C)cc1N : its melting point reads 230 to 231 °C

---

readout: melting point

Noted for COC(=O)c1ccc(-c2cccc(C=O)c2)cc1 : its melting point reads 95 to 97 °C

Noted for FC(F)(F)c1ccccc1NC(=S)N1CCc2c(sc3c2C(c2ccccc2Cl)=NCc2nnc(Cc4ccccc4)n2-3)C1 : its melting point reads 239 to 240 °C

Noted for CCCN(CC)S(=O)(=O)NC(=S)N1CC(c2ccccc2)C(c2ccc(Cl)cc2)=N1 (configuration not stated) : its melting point reads 144 to 146 °C

Noted for CCOC(=O)c1cc(OCCC2CCN(c3ccc(Cl)nn3)CC2)cs1 : its melting point reads 112 °C

Noted for CCCCCCC(C)(C)c1cc(OCc2ccccc2)c(C2=C(C(C)(C)C#N)CCC(C)C2)c(OCc2ccccc2)c1 (configuration not stated) : its melting point reads 65 to 66 °C

Noted for O=C1NC(CO)(CO)CO1 : its melting point reads 107 to 108 °C

Noted for CCOC(=O)Nc1c(C(=O)OC)sc2cc(OC)ccc12 : its melting point reads 137 °C

Noted for CCOC(=O)NCC#N : its melting point reads 49 °C

Noted for NCC(O)COc1cccc(Cl)c1 (configuration not stated) : its melting point reads 55 to 58 °C

Noted for C=C(Cc1ccccc1)C(=O)NN1CCN(C(=O)OC(C)(C)C)CC1 : its melting point reads 160 °C

Noted for O=C(Br)c1ccc(F)c(Br)c1 : its melting point reads 34.8 to 35.8 °C

Noted for CCOC(=O)c1sc(N2CCN(Cc3ccccc3)C2=O)nc1C : its melting point reads 122 to 124 °C

Noted for CC(=O)c1ccc(-c2ccc(OCc3nc4ccccc4s3)cc2)c(F)c1 : its melting point reads 170 to 172 °C

Noted for O=C1c2ccccc2CN1CCSc1ccncc1 : its melting point reads 86 to 87 °C

Noted for CC1CC(n2c(NC3CC3)nc3cc(Cl)c(Cl)cc32)C(O)C1O (configuration not stated) : its melting point reads 231 to 233 °C

Noted for Cc1cccc(-c2[nH]c(C(C)C)nc2-c2ccc(F)c(-c3ncc[nH]3)c2)n1 : its melting point reads 201 to 205 °C

Noted for CC1(C)C2CCC3(C)C(C2)C(=O)CCC13O (configuration not stated) : its melting point reads 120 to 123 °C

Noted for CCCCCCCCCCC#CC#CCCCCCCCCC(=O)O : its melting point reads 57 to 58 °C

Noted for O=C(NC(Cc1c[nH]c2ccccc12)C(=O)CCc1cc(C(F)(F)F)cc(C(F)(F)F)c1)c1ccccc1 (configuration not stated) : its melting point reads 119 to 122 °C

Noted for CN(C)c1ccc(-c2cnc3[nH]cc(C(=O)N[C@@H](C(=O)N4CC(C#N)C4)C4CC4)c3n2)cc1 : its melting point reads 175 to 180 °C

Noted for CCC(CC)c1ccc(Cl)c2nc3n(c12)CCN3c1ccc(Br)cc1Cl : its melting point reads 165 to 168 °C

Noted for C=CCOC(=O)c1c(C)nc2c(c1N)c1ccccc1n2C : its melting point reads 94 °C

Noted for CNc1c(C)c(C)c(OC(C)=O)c(C)c1[N+](=O)[O-] : its melting point reads 143 to 146 °C

Noted for CN(C)c1ccc(S(N)(=O)=O)cn1 : its melting point reads 133 to 138 °C

Noted for CN1CCC(Oc2ccccn2)(c2ccccc2)CC1 : its melting point reads 95 to 96 °C

Noted for O=C(O)C(Cl)Cc1ccccc1[N+](=O)[O-] (configuration not stated) : its melting point reads 108 to 109 °C

Noted for C#Cc1ccc2ccc(OC(CC)C(=O)NC(C)(C)CO)cc2c1 (configuration not stated) : its melting point reads 81 to 82 °C

Noted for CN(C)c1nc(=O)c2ccccc2n1Cc1ccc(F)cc1 : its melting point reads 160 to 169 °C

Noted for Oc1ccc(CN2CCN(CCCN3CCN(Cc4ccc(O)cc4)CC3)CC2)cc1 : its melting point reads 197 to 201 °C

Noted for Fc1ccc2c(N3CCN(Cc4ccccc4)CC3)n[nH]c2c1 : its melting point reads 162 °C

Noted for CC(C)(C)OC(=O)N1CCO[C@@H](c2ccc(C(=O)O)cc2)C1 : its melting point reads 173 °C

Noted for CCOC(=O)CC(C#N)=CC(=CN(C)C)c1ccc(Cl)cc1 : its melting point reads 168 to 170 °C

Noted for CCOCc1nc2c(N)nc3cc(-c4cncc(OC)c4)ccc3c2n1CC(C)(C)OCCS(C)(=O)=O : its melting point reads 186 to 188 °C

Noted for CC(C)(C)OC(=O)N1CCN(c2cccc([N+](=O)[O-])c2)C(=O)C1 : its melting point reads 122 to 123 °C

Noted for CC(C)(C(C#N)=NO)S(C)(=O)=O : its melting point reads 139 to 141 °C

Noted for Nc1cccc(O)c1NC(=O)Nc1cccc(C(F)(F)F)c1 : its melting point reads 188 to 189 °C

Noted for CC(=O)OC1CSC(Oc2cccc(-c3ccccn3)c2)C(OC(C)=O)C1OC(C)=O (configuration not stated) : its melting point reads 68 to 97 °C

Noted for Cc1cc(O)cc(C)c1-c1cccc2c1Oc1ccccc1S2 : its melting point reads 116 °C

Noted for O=C(Cc1ccc(Cl)c([N+](=O)[O-])c1)N[C@H]1C[C@H](C(=O)O)Nc2cc(Cl)cc(Cl)c21 (relative stereo) : its melting point reads 233 to 235 °C

Noted for N#Cc1cccc(CCc2nnc(-c3ccc4nccn4c3)o2)c1 : its melting point reads 168 to 169 °C

Noted for Fc1ccc(-c2ccco2)cc1 : its melting point reads 84 to 86 °C

Noted for COC(=O)c1ccc(NCc2cc(S(C)(=O)=O)ccc2OCc2ccccc2)cc1 : its melting point reads 124 °C

---

Provide the reported melting point of each item.

Noted for O=C(NCCCCCCOC(=O)N1CCC2(CCCC2)CC1)OC1CCN(C(=O)Oc2ccc(-c3ccccc3)cc2)CC1 : its melting point reads 110 to 111 °C

Noted for COc1ccc(-c2nc(OCC(F)(F)F)nn2-c2ccc(OC)nc2)cc1 : its melting point reads 63 to 64 °C

Noted for O=c1nc(-c2ccccc2)c2cc(Cl)sc2n1CC1CC1 : its melting point reads 149 to 151 °C

Noted for CC1=NC(C)(C)SC1=NOC(=O)N(C)C : its melting point reads 92 to 95 °C

Noted for Cc1ccc(Sc2nc(Cl)cc(OCCOc3ccccc3)n2)cc1 : its melting point reads 128 to 132 °C

Noted for CC(C)[C@H]1c2ccc(F)cc2CC[C@]1(O)CCNCc1nc2ccccc2s1 : its melting point reads 102 to 103 °C

Noted for C=CCN1C(=O)NC(C)=C(C(=O)OC(C)C)C1c1cccc([N+](=O)[O-])c1 (centres undefined) : its melting point reads 172 to 174 °C

Noted for COc1cccc(-c2cc(=O)c3cccc(C(=O)Nc4ccc(CCCCN5CCc6cc(OC)c(OC)cc6C5)cc4)c3[nH]2)c1 : its melting point reads 116 °C

Noted for O=CN(O)C(CCc1ccc(C(=O)O)cc1)CS(=O)(=O)c1ccc(Oc2ccc(OC(F)(F)F)cc2)cc1 (centres undefined) : its melting point reads 189 to 191 °C

---

Provide the reported melting point of each item.

Noted for CCCc1nn(-c2ccc(C(F)(F)F)cn2)cc1CCCOc1cccc(CC(=O)O)c1F : its melting point reads 109 to 110 °C

Noted for COc1ccc(COc2ccc(/C=C/c3cc(/C=C/c4ccc5cc[nH]c5c4)n[nH]3)c(OC)c2)cc1 : its melting point reads 211 to 214 °C

Noted for CC(Cc1cccc(N)c1)(NC=O)c1ccccc1 (stereo not given) : its melting point reads 114 to 115 °C

Noted for Cc1cc(O)c(SCC(C)C)c(=O)o1 : its melting point reads 106 to 108 °C

Noted for CCOc1ccc(N(C)C)cc1-c1ncc(C(=O)O)c(=O)[nH]1 : its melting point reads 187 to 196 °C

Noted for CCOC(=O)C(Br)=NNc1ccc(F)cc1 : its melting point reads 99 to 100 °C

Noted for O=[N+]([O-])c1c(N2CCc3ccccc3CC2)nc2c(c1O)CCCCC2 : its melting point reads > 200 °C

Noted for CC(=O)Nc1ccc(Cl)c(O)c1 : its melting point reads 212 °C

Noted for COCC(=O)OC1(C(=O)COC(C)=O)CCC2C3CC(C)C4=CC(=O)C=CC4(C)C3C(O)CC21C (stereo not given) : its melting point reads 150 to 152 °C

Noted for CCc1cc(C(C)=O)c(O)cc1OCCCC(C)(C)C#N : its melting point reads 55 to 56 °C
